System: biotinyl-Ile-oxazolone
Test Description: self-aminoacylation, catalytic enhancement (BIO) (fold over background); higher = more active; k-Seq, kA / k0A0; sequences stand for … in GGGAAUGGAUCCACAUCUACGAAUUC…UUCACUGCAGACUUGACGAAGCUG
This sample holds only a part of the variants without activity.
Can you tell me self-aminoacylation for the items I'm about to list?
Enter a number only.

### Prompt Quick one: self-aminoacylation of AAGUUUGUUAAUCGUCGCAAG [Fam3.1 aminoacylation ribozyme variant] ?
### Response 1.21

### Prompt Please give the result for GCACACUUAAAGCAAUCGGUC [Fam1B.1 aminoacylation ribozyme variant] too.
### Response 1.25

### Prompt Please give the result for AUUCACCUAAGCCAUCGGGUG [Fam2.2 aminoacylation ribozyme variant] too.
### Response 2.55

### Prompt Please give the result for ACUACCUUGGUCAUCGAGUGA [Fam2.1 aminoacylation ribozyme variant] too.
### Response 2.96

### Prompt Please give the result for CUACUUCAAAGAAGCGGUCUG [Fam1A.1 aminoacylation ribozyme variant] too.
### Response 1.09

### Prompt Please give the result for AAGUUUGCUAAUCGUCGCAUG [Fam3.1 aminoacylation ribozyme variant] too.
### Response 1.03

### Prompt Please give the result for AUUCACCUUGGUCGUCGGGUG [Fam2.2 aminoacylation ribozyme variant] too.
### Response 1.9

### Prompt Please give the result for CCACACUUCAAGCAAACGGUC [Fam1B.1 aminoacylation ribozyme variant] too.
### Response 0.624

### Prompt Please give the result for AGUACCCAGGUCAUCGAGUGA [Fam2.1 aminoacylation ribozyme variant] too.
### Response 3.36

====

Can you tell me self-aminoacylation for the items I'm about to list?
Test system: biotinyl-Leu-oxazolone
Test Description: self-aminoacylation, catalytic enhancement (BLO) (fold over background); higher = more active; k-Seq, kA / k0A0; sequences stand for … in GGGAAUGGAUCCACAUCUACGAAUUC…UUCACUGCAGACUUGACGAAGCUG
This sample holds only a part of the variants without activity.
Enter a number only.

### Prompt Quick one: self-aminoacylation of CCACACUUCAGGCUAUCGGUC [Fam1B.1 aminoacylation ribozyme variant] ?
### Response 1.23

### Prompt Please give the result for CCACACAUCAAGCAGUCGGUC [Fam1B.1 aminoacylation ribozyme variant] too.
### Response 0.799

### Prompt Please give the result for AAGGUUGCUAAUCGUCGCAAG [Fam3.1 aminoacylation ribozyme variant] too.
### Response 1.09

### Prompt Please give the result for AUUCACCUAAGUCAUCGGAUG [Fam2.2 aminoacylation ribozyme variant] too.
### Response 0.815

### Prompt Please give the result for AAGUUUACUAAUAGUCGCAAG [Fam3.1 aminoacylation ribozyme variant] too.
### Response 1.3

====

Can you tell me self-aminoacylation for the items I'm about to list?
System: biotinyl-Val-oxazolone
Test Description: self-aminoacylation, catalytic enhancement (BVO) (fold over background); higher = more active; k-Seq, kA / k0A0; sequences stand for … in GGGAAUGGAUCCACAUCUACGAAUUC…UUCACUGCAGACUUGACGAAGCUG
Fewer inactive variants are shown than the library holds.

### Prompt Please tell me: self-aminoacylation of GUUACCCUGGUCAUCGAGUAA [Fam2.1 aminoacylation ribozyme variant] , system biotinyl-Val-oxazolone?
### Response 7.98

### Prompt Please give the result for AAGUUUGGUAUUAGUCGCAAG [Fam3.1 aminoacylation ribozyme variant] too.
### Response 1.47

### Prompt Please give the result for AUUACCCUGGUCAUCGGGUUA [Fam2.1 aminoacylation ribozyme variant] too.
### Response 17.8

### Prompt Please give the result for CCACACUUCUAGCAAUCGGUG [Fam1B.1 aminoacylation ribozyme variant] too.
### Response 2.62

### Prompt Please give the result for ACCACCCUGGUCAUCGAGUGA [Fam2.1 aminoacylation ribozyme variant] too.
### Response 5.17

### Prompt Please give the result for GUACACUUCAAGCAAUCGGUC [Fam1B.1 aminoacylation ribozyme variant] too.
### Response 1.34

### Prompt Please give the result for CAACACCUCAAGCAAUCGGUC [Fam1B.1 aminoacylation ribozyme variant] too.
### Response 0.914

### Prompt Please give the result for CUACUUCAAACCAGCGGUCUG [Fam1A.1 aminoacylation ribozyme variant] too.
### Response 1.13

### Prompt Please give the result for CCACACUUCAAGCCAUCGUUC [Fam1B.1 aminoacylation ribozyme variant] too.
### Response 1.35

### Prompt Please give the result for CUACUUCAAACAAUCGUUCCG [Fam1A.1 aminoacylation ribozyme variant] too.
### Response 0.66

### Prompt Please give the result for AUUCACCUAGGAAAUCGGGUG [Fam2.2 aminoacylation ribozyme variant] too.
### Response 3.5

### Prompt Please give the result for AAGUUUGCGAAUCGUCGCAAG [Fam3.1 aminoacylation ribozyme variant] too.
### Response 1.1

### Prompt Please give the result for AUUCACCUAGGUCACCGUGUG [Fam2.2 aminoacylation ribozyme variant] too.
### Response 1.33

### Prompt Please give the result for AUUCACCUAGGUCAUGGGGUA [Fam2.2 aminoacylation ribozyme variant] too.
### Response 1.83

### Prompt Please give the result for AUUUCGCUGGUCAUCGAGUGA [Fam2.1 aminoacylation ribozyme variant] too.
### Response 3.16

### Prompt Please give the result for CCACACUUCAAGCACUCGGUG [Fam1B.1 aminoacylation ribozyme variant] too.
### Response 3.16

### Prompt Please give the result for AUUACCCUCGUCAUCUAGUGA [Fam2.1 aminoacylation ribozyme variant] too.
### Response 2.7

### Prompt Please give the result for AAGUUAGCUAAUAGCCGCAAG [Fam3.1 aminoacylation ribozyme variant] too.
### Response 1.6
